T/C by entry:
# Tested on: L1210 leukemia ip in BDF1 mice, survival T/C
# assay procedure: NCI In Vivo Anticancer Drug Screen. Data for tumor model L1210 Leukemia (intraperitoneal) in B6D2F1 (BDF1) mice
# protocol conditions: endpoint: mean survival time; dose: 25.0 mg/kg/injection; schedule: Q04DX003 (ip); vehicle: saline with Tween-80; higher = longer survival
Inconclusive results and toxic doses are left out.

Answered examples (3):
1) C#CCCCN1CCC2(CC1)C(=O)N(C(=O)N(C)C)CN2c1ccccc1
105 % of control
2) [O-]/[N+](=N/O)c1ccc(Cl)cc1
103 % of control
3) CCCCOP(=O)(OCCCC)C(C)c1ccccc1 (centres undefined)
98 % of control

// switching to the query compound
Fill in: T/C of CC1C(=O)OC(C)(C)C1(C)C (centres undefined) is ___ 108 % of control
